Assignment: determine reported inhibition at 10 µM for the given compounds.
Molecular target: native human TRPA1 receptors (Homo sapiens)
Construct: stably expressing native human TRPA1 receptors were used; endogenous in cells; host or cells: A549 human lung adenocarcinoma epithelial cell line
Experiment: PF-4840154 (1 μM)-induced Ca2+ fluorescence measurements in A549 cell line
Assay type: cell-based
Conditions: 10 μM compound against 1 μM PF-4840154, A549 cells
One number for each entry, in %.

Take a look at these entries with their results.
C=C(C(=O)NCc1cc(-c2ccc(OC(F)(F)F)cc2)nc(N2CCOCC2)c1)N(C)S(=O)(=O)c1ccc(Cl)cc1	99
C=C(C(=O)NCc1ccnc(-c2ccc(OC(F)(F)F)cc2)c1)N(C)S(=O)(=O)c1ccc(F)cc1	98
C=C(C(=O)NCc1cc(-c2ccc(C(F)(F)F)cc2)nc(N2CCCC2)c1)N(CC)S(=O)(=O)c1ccc(F)cc1	100
C=C(C(=O)NCc1cc(OC)nc(-c2ccc(C(F)(F)F)cc2)c1)N(CC)S(=O)(=O)c1ccc(F)cc1	100
CCN(C1(C(=O)NCc2ccnc(-c3ccc(OC(F)(F)F)cc3)c2)CC1)S(=O)(=O)c1ccc(Cl)cc1	100
C=C(C(=O)NCc1cc(-c2ccc(C(F)(F)F)cc2)nc(N(C)C)c1)N(CC)S(=O)(=O)c1cccs1	96
C/C=C(/C(=O)NCc1ccnc(-c2ccc(OC(F)(F)F)cc2)c1)N(C)S(=O)(=O)c1ccc(F)cc1	100
C=C(C(=O)NCc1ccnc(-c2ccc(OC(F)(F)F)cc2)c1)N(CC)S(=O)(=O)c1ccc(F)cc1	95
CCN(C1(C(=O)NCc2cccc(-c3ccc(C(F)(F)F)cc3)c2)CC1)S(=O)(=O)c1ccc(Cl)cc1	100
C=C(C(=O)NCc1cc(-c2ccc(C(F)(F)F)cc2)nc(N2CCOCC2)c1)N(CC)S(=O)(=O)c1ccc(F)cc1	100

I need inhibition at 10 µM for every entry listed below, if you could help.
1. C=C(C(=O)NCc1cc(OC(C)C)nc(-c2ccc(C(F)(F)F)cc2)c1)N(CC)S(=O)(=O)c1ccc(F)cc1
2. CCN(C1(C(=O)NCc2cccc(-c3ccc(C(F)(F)F)cc3)c2)CC1)S(=O)(=O)c1ccc(Cl)s1
3. C/C=C(/C(=O)NCc1cccc(-c2ccc(C(F)(F)F)cc2)c1)N(CC)S(=O)(=O)c1ccc(Cl)cc1

[reply]
100
99
97

[ask] Request the reported inhibition at 10 µM associated with CCN(C1(C(=O)NCc2cc(-c3ccc(C(F)(F)F)cc3)nc(N3CCCC3)c2)CC1)S(=O)(=O)c1ccc(Cl)s1
[reply] 100

---

Target: native human TRPA1 receptors (Homo sapiens, UniProt O75762)
Construct: stably expressing native human TRPA1 receptors were used; endogenous in cells; host or cells: A549 human lung adenocarcinoma epithelial cell line
Sequence (O75762 whole entry): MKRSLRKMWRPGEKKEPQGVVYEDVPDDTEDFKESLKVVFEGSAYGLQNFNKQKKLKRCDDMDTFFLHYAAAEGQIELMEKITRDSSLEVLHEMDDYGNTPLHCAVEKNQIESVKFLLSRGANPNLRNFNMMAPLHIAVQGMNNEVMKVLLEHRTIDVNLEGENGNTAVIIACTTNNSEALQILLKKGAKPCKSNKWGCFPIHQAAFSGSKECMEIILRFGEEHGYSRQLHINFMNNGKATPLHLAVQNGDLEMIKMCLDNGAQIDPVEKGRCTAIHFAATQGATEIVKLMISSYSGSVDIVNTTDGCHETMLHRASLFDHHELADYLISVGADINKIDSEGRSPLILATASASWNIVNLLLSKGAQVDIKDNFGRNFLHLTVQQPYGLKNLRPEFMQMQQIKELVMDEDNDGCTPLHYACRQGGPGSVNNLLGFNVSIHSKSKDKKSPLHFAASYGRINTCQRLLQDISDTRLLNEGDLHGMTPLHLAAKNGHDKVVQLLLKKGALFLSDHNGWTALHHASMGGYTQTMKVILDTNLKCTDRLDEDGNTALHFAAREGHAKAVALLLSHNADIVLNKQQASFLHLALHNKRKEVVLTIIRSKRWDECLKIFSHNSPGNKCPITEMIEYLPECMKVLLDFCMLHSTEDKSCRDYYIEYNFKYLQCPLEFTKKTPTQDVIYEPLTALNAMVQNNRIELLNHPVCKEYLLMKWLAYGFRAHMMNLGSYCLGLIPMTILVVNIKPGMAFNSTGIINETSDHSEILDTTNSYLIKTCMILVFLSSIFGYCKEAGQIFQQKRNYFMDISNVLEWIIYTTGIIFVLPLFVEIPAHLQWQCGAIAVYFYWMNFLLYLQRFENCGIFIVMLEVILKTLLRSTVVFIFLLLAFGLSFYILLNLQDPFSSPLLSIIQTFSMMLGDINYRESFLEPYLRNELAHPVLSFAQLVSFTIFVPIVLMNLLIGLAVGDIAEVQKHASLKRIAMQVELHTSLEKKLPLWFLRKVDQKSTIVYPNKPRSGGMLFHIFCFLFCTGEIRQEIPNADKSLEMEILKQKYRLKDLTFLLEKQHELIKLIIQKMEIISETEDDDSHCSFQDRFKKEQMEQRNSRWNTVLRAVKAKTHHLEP
Assay: PF-4840154 (1 μM)-induced Ca2+ fluorescence measurements in A549 cell line
Format: cell-based
Settings: against PF-4840154 (1 μM)-evoked [Ca2+]i mobilization, A549 cells
Assignment: determine reported pIC50 for the given compounds.
Answers are plain numbers, as −log10 of the molar value.

Take a look at these entries with their results.
CCN(C1(C(=O)NCc2cc(OC)nc(-c3ccc(C(F)(F)F)cc3)c2)CC1)S(=O)(=O)c1ccc(F)cc1 [Example 48]	6.59
CCN(C1(C(=O)NCc2cccc(-c3ccc(C(F)(F)F)cc3)c2)CC1)S(=O)(=O)c1ccc(F)cc1 [Example 29]	6.86

I need pIC50 for every entry listed below, if you could help.
1. C=C(C(=O)NCc1cc(-c2ccc(OC(F)(F)F)cc2)nc(N2CCOCC2)c1)N(CC)S(=O)(=O)c1ccc(Cl)cc1 [Example 17]
2. C/C=C(/C(=O)NCc1ccnc(-c2ccc(OC(F)(F)F)cc2)c1)N(CC)S(=O)(=O)c1ccc(F)cc1 [Example 22]

[reply]
[6.92, 6.61]

I need pIC50 for every entry listed below, if you could help.
1. C=C(C(=O)NCc1ccnc(-c2ccc(C(F)(F)F)cc2)c1)N(CC)S(=O)(=O)c1cccc(F)c1 [Example 36]
2. CCN(C1(C(=O)NCc2cc(-c3ccc(C(F)(F)F)cc3)nc(N3CCN(C4CCCCC4)CC3)c2)CC1)S(=O)(=O)c1ccc(Cl)s1 [Example 67]
3. CCN(C1(C(=O)NCc2cc(-c3ccc(C(F)(F)F)cc3)ccn2)CC1)S(=O)(=O)c1ccc(F)cc1 [Example 60]

[reply]
[6.93, 6.23, 6.37]

---

Target: native human TRPA1 receptors (Homo sapiens, UniProt O75762)
Construct: stably expressing native human TRPA1 receptors were used; endogenous in cells; host or cells: A549 human lung adenocarcinoma epithelial cell line
Test: PF-4840154 (1 μM)-induced Ca2+ fluorescence measurements in A549 cell line
Type: cell-based
Settings: 10 μM compound against 1 μM PF-4840154, A549 cells
OBSERVATION_TYPE: inhibition at 10 µM (%)
Give bare numbers, in %.

I need inhibition at 10 µM for every entry listed below, if you could help.
1. CCN(C1(C(=O)NCc2cc(-c3ccc(C(F)(F)F)cc3)nc(N3CCCC3)c2)CC1)S(=O)(=O)c1ccc(F)cc1 [Example 51]
2. CCN(C1(C(=O)NCc2cccc(-c3ccc(OC(F)(F)F)cc3)c2)CC1)S(=O)(=O)c1ccc(F)cc1 [Example 31]
3. C=C(C(=O)NCc1ccnc(-c2ccc(OC(F)(F)F)cc2)c1)N(C)S(=O)(=O)c1ccc(Cl)cc1 [Example 4]
4. C=C(C(=O)NCc1cc(-c2ccc(OC(F)(F)F)cc2)nc(-c2ccc(OC(F)(F)F)cc2)c1)N(C)S(=O)(=O)c1ccc(Cl)cc1 [Example 20]
5. CCN(C1(C(=O)NCc2cc(-c3ccc(C(F)(F)F)cc3)nc(N3CCOCC3)c2)CC1)S(=O)(=O)c1ccc(F)cc1 [Example 62]

[reply]
100
100
98
96
100

I need inhibition at 10 µM for every entry listed below, if you could help.
1. CCN(C1(C(=O)NCc2cc(-c3ccc(C(F)(F)F)cc3)nc(N3CCN(C4CCCCC4)CC3)c2)CC1)S(=O)(=O)c1ccc(F)cc1 [Example 66]
2. CN(C1(C(=O)NCc2cccc(-c3ccc(OC(F)(F)F)cc3)c2)CC1)S(=O)(=O)c1ccc(F)cc1 [Example 57]
3. C=C(C(=O)NCc1cccc(-c2ccc(OC(F)(F)F)cc2)c1)N(CC)S(=O)(=O)c1ccc(F)cc1 [Example 11]
4. CCN(C1(C(=O)NCc2cc(-c3ccc(C(F)(F)F)cc3)nc(N(C)C)c2)CC1)S(=O)(=O)c1ccc(F)cc1 [Example 45]
5. CCOc1cc(CNC(=O)C2(N(CC)S(=O)(=O)c3ccc(F)cc3)CC2)cc(-c2ccc(C(F)(F)F)cc2)n1 [Example 52]
6. C=C(C(=O)NCc1ccnc(-c2ccc(C(F)(F)F)cc2)c1)N(CC)S(=O)(=O)c1ccc(Cl)s1 [Example 12]
7. C=C(C(=O)NCc1ccnc(-c2ccc(OC(F)(F)F)cc2)c1)N(CC)S(=O)(=O)c1ccc(Cl)cc1 [Example 5]
8. CCN(C1(C(=O)NCc2ccnc(-c3ccc(OC(F)(F)F)cc3)c2)CC1)S(=O)(=O)c1ccc(Cl)s1 [Example 28]

[reply]
1. 93
2. 97
3. 99
4. 100
5. 99
6. 100
7. 99
8. 100

[ask] Request the reported inhibition at 10 µM associated with C=C(C(=O)NCc1cccc(-c2ccc(C(F)(F)F)cc2)c1)N(CC)S(=O)(=O)c1ccc(Cl)cc1 [Example 10]
[reply] 99

---

Assignment: determine reported inhibition at 10 µM for the given molecules.
Target: native human TRPA1 receptors (Homo sapiens, UniProt O75762)
Construct: stably expressing native human TRPA1 receptors were used; endogenous in cells; host or cells: A549 human lung adenocarcinoma epithelial cell line
Experiment: PF-4840154 (1 μM)-induced Ca2+ fluorescence measurements in A549 cell line
Assay type: cell-based
Details: 10 μM compound against 1 μM PF-4840154, A549 cells
Answers are plain numbers, in %.

I need inhibition at 10 µM for every entry listed below, if you could help.
1. C=C(C(=O)NCc1cc(-c2ccc(OC(F)(F)F)cc2)nc(N2CCN(CC3CC3)CC2)c1)N(CC)S(=O)(=O)c1ccc(F)cc1
2. CN(C1(C(=O)NCc2cccc(-c3ccc(C(F)(F)F)cc3)c2)CC1)S(=O)(=O)c1ccc(F)cc1
3. C=C(C(=O)NCc1ccnc(-c2ccc(OC(F)(F)F)cc2)c1)N(C)S(=O)(=O)c1ccc(C)cc1
4. O=C(NCc1cc(-c2ccc(OC(F)(F)F)cc2)nc(N2CCCC2)c1)C1(NS(=O)(=O)c2ccc(F)cc2)CC1
5. CCN(C1(C(=O)NCc2cccc(-c3ccc(OC(F)(F)F)cc3)c2)CC1)S(=O)(=O)c1ccc(Cl)s1
6. C=C(C(=O)NCc1cc(-c2ccc(C(F)(F)F)cc2)nc(N2CCOCC2)c1)N(CC)S(=O)(=O)c1ccc(Cl)s1
7. CCN(C1(C(=O)NCc2ccnc(-c3ccc(C(F)(F)F)cc3)c2)CC1)S(=O)(=O)c1ccc(F)cc1

[reply]
99
100
100
55
96
100
100
